Source listed as the supplement of paper PMC10290057.

Listed here: items and their measured efficacy.
System: HCT116
Test: efficacy (fitted maximal change in viability relative to DMSO control); higher = less cytotoxic (negative = loss of viability)
Conditions: 48 h
Counter-ions that a name gives are not always drawn.
# value in %; strip the unit string

Solved cases (5 shown):
molecule	uom	efficacy
CCCCCN(CCC12CC3CC(CC(C3)C1)C2)C(=O)NCCCc1ccncc1 [DE-096]	%	-90.2
OCCC#Cc1nc(-c2ccc(F)cc2)c(-c2ccncc2)n1CCCc1ccccc1	%	-64.2
C=CC(=O)Nc1cccc(Nc2nc(Nc3ccc(NC4CN(CCF)C4)cc3OC)ncc2C(F)(F)F)c1 [CNX-2006]	%	-105
CC(C)N(CCCNC(=O)Nc1ccc(C(C)(C)C)cc1)C[C@H]1O[C@@H](n2ccc3c(N)ncnc32)[C@H](O)[C@@H]1O	%	-31.1
OCc1ccccc1O[C@@H]1O[C@H](CO)[C@@H](O)[C@H](O)[C@H]1O [Salicin]	%	14

Enquiry: I'd like to know its efficacy. The molecule in question is C[C@H](NC(=O)Cc1cc(F)cc(F)c1)C(=O)N[C@H](C(=O)OC(C)(C)C)c1ccccc1 [GSI-IX]
Return: 26

Enquiry: I'd like to know its efficacy. The molecule in question is C=C1C[C@@H]2CC[C@@]34C[C@H]5O[C@H]6[C@@H](O3)[C@H]3O[C@H](CC[C@@H]3O[C@H]6[C@H]5O4)CC(=O)C[C@@H]3[C@@H](OC)[C@@H](C[C@H](O)CN)O[C@H]3C[C@H]3O[C@@H](CC[C@@H]1O2)C[C@@H](C)C3=C [Eribulin mesylate]
Return: -56.4

Enquiry: I'd like to know its efficacy. The molecule in question is CNC(=O)c1ccc(-c2cnc3ncc(Cc4ccc5ncccc5c4)n3n2)cc1F [Capmatinib]
Return: -28.8

Enquiry: I'd like to know its efficacy. The molecule in question is C[C@@H](NCc1cc2ccccc2[nH]1)c1cccc2ccccc12 [Calindol]
Return: -94.8

Enquiry: I'd like to know its efficacy. The molecule in question is Nc1ncnc2nc(-c3ccc(N4CCOCC4)nc3)cc(-c3cccc(Br)c3)c12 [ABT-702]
Return: -53

Enquiry: I'd like to know its efficacy. The molecule in question is COc1ccc(-c2ccc3c(N4CCOC[C@@H]4C)nc(N4CCOC[C@@H]4C)nc3n2)cc1CO [AZD-8055]
Return: -51.6

Enquiry: I'd like to know its efficacy. The molecule in question is CCc1cc(Nc2nccc(-c3c(-c4ccc(OC)c(C(=O)Nc5c(F)cccc5F)c4)nc4ccccn34)n2)c(OC)cc1N1CCC(N2CCN([S+](C)(=O)[O-])CC2)CC1
Return: -21

Enquiry: I'd like to know its efficacy. The molecule in question is CN(C)C/C=C/C(=O)Nc1ccc(C(=O)Nc2cccc(Nc3ncc(Cl)c(-c4c[nH]c5ccccc45)n3)c2)cc1 [THZ1]
Return: -67.4

Enquiry: I'd like to know its efficacy. The molecule in question is CC(=O)Nc1ccc(C(=O)NC(C)(C)C)cc1 [CPI-1189]
Return: -10.3

Enquiry: I'd like to know its efficacy. The molecule in question is Cc1cc(-c2ccc(CC(=O)Nc3ccc(-c4cccnc4)cc3)cc2)ccn1 [Wnt-C59]
Return: -33.8

Enquiry: I'd like to know its efficacy. The molecule in question is Cn1c(CNc2ccc(C(=N)N)cc2)nc2cc(C(=O)N(CCC(=O)O)c3ccccn3)ccc21 [Dabigatran]
Return: -8.84

Enquiry: I'd like to know its efficacy. The molecule in question is C[S+](=O)([O-])c1cccc(CNc2nc(Nc3ccc4c(c3)CCC(=O)N4)ncc2C(F)(F)F)c1
Return: -71.5

Enquiry: I'd like to know its efficacy. The molecule in question is C/C=C(/C)C(=O)O[C@H]1C(C)=C2[C@H]([C@@H]1OC(=O)CCCCCCC)[C@@](C)(OC(C)=O)C[C@H](OC(=O)CCC)[C@@]1(O)[C@H]2OC(=O)[C@@]1(C)O [Thapsigargin]
Return: -93.2

* * *

Listed here: items and their measured AC50 cell viability.
Tested on: HCT116
Assay: AC50 cell viability (CellTiter-Glo); higher = less potent
Details: 48 h
# value in µM; strip the unit string

Solved cases (6 shown):
In [3]: df
Out[3]:
                                   compound  measurement_target          metric_name  observed_result
0  CCOc1cc(N2CCC(O)CC2)ccc1Nc1ncc2c(n1)N(C)c1ccccc1C(=O)N2C              HCT116  AC50 cell viability             8.33
1  CC[S+](=O)([O-])Nc1ccc2c(c1)/C(=C(/Nc1ccc(CN3CCCCC3)cc1)c1ccccc1)C(=O)N2              HCT116  AC50 cell viability            0.235
2  CN(C)C/C=C/C(=O)Nc1ccc(C(=O)Nc2cccc(Nc3ncc(Cl)c(-c4c[nH]c5ccccc45)n3)c2)cc1              HCT116  AC50 cell viability           0.0661
3  Cc1cccc(CC(=O)N2CCc3c2ccc(-c2cn(C)c4ncnc(N)c24)c3F)n1              HCT116  AC50 cell viability            0.661
4  C[C@@H]1COCCN1c1cc(-c2ccnn2C)c2ccnc(-c3ccn[nH]3)c2n1              HCT116  AC50 cell viability            0.525
5        CN1CC/C(CC1)=C3\c4ccccc4CCc2sccc23              HCT116  AC50 cell viability             23.5

Enquiry: Write down the reported AC50 cell viability of Nc1ncnc2c1c(-c1cnc3[nH]ccc3c1)nn2C1CCCC1 , test system: HCT116.
Return: 2.63

Enquiry: Write down the reported AC50 cell viability of COc1cc(N2CCN(C)CC2)ccc1Nc1nccc(-c2cn(C)c3cnccc23)n1 , test system: HCT116.
Return: 18.6

Enquiry: Write down the reported AC50 cell viability of Cc1ccc(N[S+](=O)([O-])c2cccc(C#N)c2)c2[nH]cc(C#N)c12 , test system: HCT116.
Return: 0.417

Enquiry: Write down the reported AC50 cell viability of Cc1cc(Cl)ccc1OCCCC(=O)NO , test system: HCT116.
Return: 20.9

Enquiry: Write down the reported AC50 cell viability of COC(=O)Nc1nc2cc(C(=O)c3cccs3)ccc2[nH]1 , test system: HCT116.
Return: 0.166

Enquiry: Write down the reported AC50 cell viability of COc1cccc(OCCCN)c1-c1cc(Nc2cnc(C#N)cn2)n[nH]1 , test system: HCT116.
Return: 3.72

Enquiry: Write down the reported AC50 cell viability of FC(F)(F)C1=CC=C2C(SCCCCCO\C3=C\O\C(CN4CCOCC4)=C/C3=O)=CC=NC2=C1 , test system: HCT116.
Return: 18.6

Enquiry: Write down the reported AC50 cell viability of COC(=O)Nc1nc2cc([S+]([O-])c3ccccc3)ccc2[nH]1 (centres undefined) , test system: HCT116.
Return: 6.61

Enquiry: Write down the reported AC50 cell viability of CC(C)n1c(/C=C/[C@H](O)C[C@H](O)CC(=O)O)c(-c2ccc(F)cc2)c2ccccc21 , test system: HCT116.
Return: 9.34

Enquiry: Write down the reported AC50 cell viability of C[N]1C=C(C=N1)C2=CN=C3\C=C/C4=CC=C(C[S+]([O-])(=O)NCC5=NC=CC=C5)C=C4C(=O)C3=C2 , test system: HCT116.
Return: 16.6

Enquiry: Write down the reported AC50 cell viability of NC1(C(=O)N[C@@H](CCO)c2ccc(Cl)cc2)CCN(c2ncnc3[nH]ccc23)CC1 , test system: HCT116.
Return: 11.8

* * *

Test system: HCT116
Assay: efficacy (fitted maximal change in viability relative to DMSO control); higher = less cytotoxic (negative = loss of viability)
Conditions: 48 h
Structures can show the parent of a compound that is named as a salt.
Listed here: items and their measured efficacy.
# value in %; strip the unit string

>>> df
                                   compound  measurement_target  metric_name  observed_result
0  COc1cc2nc(-c3cc(F)ccc3O)nc(N[C@@H]3CNC[C@H]3C(C)(C)O)c2cc1OC              HCT116     efficacy            -87.7
1          CC(=O)Nc1ccc(C(=O)Nc2ccccc2N)cc1              HCT116     efficacy            -69.7
2  O=C1NC(=O)/C(=C/c2ccc3nccc(-c4ccncc4)c3c2)S1              HCT116     efficacy            -82.3
3  OC1=CC2=C(C=C1)C(=O)\C(=C(O2)\C3=CC(=C(O)C=C3)O)O              HCT116     efficacy            -56.3
4  Cc1cc(Nc2cc(NC(=O)c3c(Cl)cccc3Cl)ccn2)nc(N)n1              HCT116     efficacy            -74.4

Enquiry: I'd like to know its efficacy. The compound in question is Cc1csc(-c2nnc(Nc3ccc(Oc4ncccc4-c4ccnc(N)n4)cc3)c3ccccc23)c1
Return: -52.9

Enquiry: I'd like to know its efficacy. The compound in question is CNC(=O)c1cc(Oc2ccc(NC(=O)Nc3ccc(Cl)c(C(F)(F)F)c3)cc2)ccn1
Return: -95

Enquiry: I'd like to know its efficacy. The compound in question is CC1=C(C=CC=C1)N2\C(=N/C3=C(C(=CC=C3)C)C2=O)C[N]4N=CC5=C4N=CN=C5N
Return: -6.78

Enquiry: I'd like to know its efficacy. The compound in question is Cc1ccc([S+](=O)([O-])Cc2nc(-c3ccc(C(=O)NCc4cccnc4)cc3)oc2C)cc1
Return: -90.9

Enquiry: I'd like to know its efficacy. The compound in question is CN1CCN(c2ccc([N+](=O)[O-])c3no[n+]([O-])c23)CC1
Return: -19.8

Enquiry: I'd like to know its efficacy. The compound in question is CC1(C)CN(C(=O)c2ccc(-c3cccc4nc(NC(=O)C5CC5)nn34)cc2)C1
Return: -18.3

Enquiry: I'd like to know its efficacy. The compound in question is CCOCC(O)COc1ccc(NC(=O)CC[S+](C)C)cc1 (stereo not drawn) [Suplatast tosylate]
Return: -20.9
